These entries and their values trace back to paper PMC5717258.

measurement_notes: Plasma bioaccumulation factor (BAFP), goldfish
Assay type: in vivo, goldfish (Carassius auratus)
condition_notes: CPM2; water sample of August 2012
Param label: returns MET when BAFP, CPM2 goldfish caged < 30 L/kg, returns NOT MET otherwise, including exact equality.

compound	assigned_class
Cc1ccc(C)c(OCCCC(C)(C)C(=O)O)c1	MET
CN(C)CCCC1(c2ccc(F)cc2)OCc2cc(C#N)ccc21 (stereo not shown)	MET
CCN(CC)C(=O)c1cccc(C)c1 [DEET, N,N-Diethyl-m-toluamide]	MET
CN[C@H]1CC[C@@H](c2ccc(Cl)c(Cl)c2)c2ccccc21	MET
CC1CCc2cc(F)cc3c(=O)c(C(=O)O)cn1c23 (stereo not shown)	NOT MET
CN(C)CCOC(c1ccccc1)c1ccccc1 [Diphenhydramine]	MET
C[C@H](O)C(=O)Nc1c(I)c(C(=O)NC(CO)CO)c(I)c(C(=O)NC(CO)CO)c1I	NOT MET
